- TESTED ON: FXR (Homo sapiens)
- Construct: using a full length FXR on a natural response element; expressed in transfected cells
- Sequence (Q96RI1 1-486): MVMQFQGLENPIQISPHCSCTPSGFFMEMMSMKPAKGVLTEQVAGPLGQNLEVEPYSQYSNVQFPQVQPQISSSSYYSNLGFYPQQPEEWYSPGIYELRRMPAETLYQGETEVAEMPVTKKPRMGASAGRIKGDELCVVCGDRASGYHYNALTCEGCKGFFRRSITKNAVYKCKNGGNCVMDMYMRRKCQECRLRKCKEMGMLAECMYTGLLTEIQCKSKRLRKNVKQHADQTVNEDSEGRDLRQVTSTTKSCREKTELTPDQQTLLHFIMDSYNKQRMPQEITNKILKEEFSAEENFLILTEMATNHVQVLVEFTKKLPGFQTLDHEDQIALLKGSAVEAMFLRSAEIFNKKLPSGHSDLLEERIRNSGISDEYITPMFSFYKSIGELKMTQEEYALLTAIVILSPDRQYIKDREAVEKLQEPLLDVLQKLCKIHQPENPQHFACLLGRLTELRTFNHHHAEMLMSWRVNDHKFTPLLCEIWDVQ
- PROTOCOL TEXT: cell-based FXR transcription assay, FXR responsive promoter linked to luciferase reporter
- CONDITION DESCRIPTION: cell-based FXR reporter assay; footnote a not given

SUBSTANCE SMILES | RE^a
COC(=O)C=Cc1cccc(N(Cc2ccc(C=Cc3scnc3C)cc2)C(=O)C(C)C)c1 | 0.32
COC(=O)/C=C/c1cccc(N(Cc2ccc(-c3ccc(F)c(F)c3)cc2)C(=O)NC(C)C)c1 | 0.23
COC(=O)/C=C/c1cccc(N(Cc2ccc3c(c2OC)OC(C)(C)C=C3)C(=O)C2CCCCC2)c1 | 0.40
COC(=O)C=Cc1cccc(N(Cc2ccc(C=CC(=O)OC(C)(C)C)cc2OCc2ccccc2)C(=O)C2CCCCC2)c1 | 0.38

* * *

- TESTED ON: FXR (Homo sapiens, UniProt Q96RI1)
- Construct: using a full length FXR on a natural response element; expressed in transfected cells
- Sequence (Q96RI1 1-486): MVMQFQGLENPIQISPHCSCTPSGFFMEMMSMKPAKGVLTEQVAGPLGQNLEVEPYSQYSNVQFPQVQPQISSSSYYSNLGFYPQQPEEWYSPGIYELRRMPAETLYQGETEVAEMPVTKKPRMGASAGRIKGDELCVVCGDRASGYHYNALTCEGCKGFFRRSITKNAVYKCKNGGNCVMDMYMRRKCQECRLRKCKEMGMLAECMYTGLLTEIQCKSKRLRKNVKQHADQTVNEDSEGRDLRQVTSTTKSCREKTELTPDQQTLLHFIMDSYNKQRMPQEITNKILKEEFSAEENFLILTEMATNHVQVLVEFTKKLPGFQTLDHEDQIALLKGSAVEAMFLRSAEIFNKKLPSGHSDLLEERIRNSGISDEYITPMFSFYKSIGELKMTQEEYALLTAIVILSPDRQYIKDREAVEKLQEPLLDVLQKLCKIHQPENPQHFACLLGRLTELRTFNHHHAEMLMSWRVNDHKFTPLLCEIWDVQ
- PROTOCOL TEXT: cell-based FXR transcription assay, FXR responsive promoter linked to luciferase reporter
- CONDITION DESCRIPTION: cell-based FXR reporter assay; footnote a not given
Reported RE^a maps to class as: low value = under 0.2, medium value = from 0.2 up to 0.9, high value = 0.9 and over

MOLECULE | CLASS
CCOc1cccc(-c2ccc(CN(C(=O)NC(C)C)c3cccc(/C=C/C(=O)OC)c3)cc2)c1 [Compound 228] | medium value
COC(=O)/C=C/c1cccc(N(Cc2ccc(-c3ccc(OC(F)(F)F)cc3)cc2)C(=O)C(C)C)c1 [Compound 251] | medium value
COC(=O)/C=C/c1cccc(N(Cc2ccc(-c3c(OC)cccc3OC)cc2)C(=O)C(C)C)c1 [Compound 257] | low value
COC(=O)/C=C/c1cccc(N(Cc2ccc(-c3cccc(OC)c3)cc2)C(=O)C2CCCCC2)c1 [Compound 223] | high value
COC(=O)/C=C/c1cccc(N(Cc2ccc(-c3ccc4c(c3)OCO4)cc2)C(=O)NC(C)C)c1 [Compound 246] | high value
COC(=O)C=Cc1ccc(CN(C(=O)C2CCCCC2)c2cccc(C=CC(=O)OC)c2)cc1 [Compound 150] | medium value
COC(=O)/C=C/c1cccc(N(Cc2ccc(-c3cc(Cl)cc(Cl)c3)cc2)C(=O)C2CCCCC2)c1 [Compound 126] | high value
COC(=O)/C=C/c1cccc(N(Cc2ccc(-c3cccc(C)c3)cc2)C(=O)NC(C)C)c1 [Compound 240] | medium value
COC(=O)/C=C/c1cccc(N(Cc2ccc(-c3cc(Cl)ccc3OC)cc2)C(=O)C(C)C)c1 [Compound 242] | medium value
COC(=O)/C=C/c1cccc(N(Cc2ccc(-c3cc(Cl)ccc3OC)cc2)C(=O)C2CCCCC2)c1 [Compound 241] | high value
COC(=O)/C=C/c1cccc(N(Cc2ccc(-c3cccc(Cl)c3)cc2)C(=O)C(C)C)c1 [Compound 233] | high value
COC(=O)/C=C/c1cccc(N(Cc2ccc(/C=C/c3c(C)cc(C)cc3C)cc2)C(=O)NC(C)C)c1 [Compound 197] | low value
COC(=O)/C=C/c1cccc(N(Cc2ccc(-c3ccc(SC)cc3)cc2)C(=O)NC(C)C)c1 [Compound 217] | medium value
COC(=O)C=Cc1cccc(N(Cc2ccc(-c3ccc(C(C)=O)s3)cc2)C(=O)C2CCCCC2)c1 [Compound 129] | high value
COC(=O)/C=C/c1cccc(N(Cc2ccc(-c3cc(Cl)ccc3OC)cc2)C(=O)NC(C)C)c1 [Compound 243] | low value
CCOC(=O)C=Cc1cccc(N(Cc2ccc(C=CC(=O)OC(C)(C)C)cc2)C(=O)C2CCCCC2)c1 [Compound 133] | high value
COC(=O)/C=C/c1cccc(N(Cc2ccc(-c3cccc(Cl)c3)cc2)C(=O)NC(C)C)c1 [Compound 234] | medium value
COC(=O)/C=C/c1cccc(N(Cc2ccc(-c3ccc(OC(F)(F)F)cc3)cc2)C(=O)NC(C)C)c1 [Compound 252] | medium value
COC(=O)/C=C/c1cccc(N(Cc2ccccc2)C(=O)C2CCCCC2)c1 [Compound 110] | low value
COCC=Cc1ccc(CN(C(=O)C2CCCCC2)c2cccc(C=CC(=O)OC)c2)cc1 [Compound 156] | high value
COC(=O)/C=C/c1cccc(N(Cc2ccc(/C=C/c3cc(C(F)(F)F)cc(C(F)(F)F)c3)cc2)C(=O)C(C)C)c1 [Compound 184] | low value
COC(=O)C=Cc1cccc(N(Cc2ccc(C=CC(=O)OC(C)(C)C)cc2OC)C(=O)C2CCCCC2)c1 [Compound 162] | low value
